Procedure Summary: Quantitative High-Throughput drug screen in 47 multiple myeloma cell lines against the NCATS MIPE library collection: AMO1_DSMZ cell viability assay (AID 1918927; further: nearly all actives have a fitted effect of over 30% in size)
Test Context: AMO1 myeloma cells viability, CellTiter-Glo ATP luminescence, 48 h; series mostly up to 45.8 µM
Inconclusive results are not listed. Calls of active or inactive are those of the source. The call rests on the fitted dose curve; in most records, active means well fitted cell-killing curve with a large enough effect; inconclusive means small, poorly fitted or top-dose-only effect, or effect the other way; inactive means no such curve, though single readings can be large or run the other way.
Mark one answer only. Choices: active, inactive

In [3]: df
Out[3]:
                                   compound  qualitative_label
0                Cn1c(=O)c2c(ncn2C)n(C)c1=O           inactive
1  O=C(c1ccc(OCCN2CCCCC2)cc1)c1c(-c2ccc(O)cc2)sc2cc(O)ccc12             active
2  COc1cc2c(c(OC)c1OC)-c1ccc(OC)c(=O)cc1[C@@H](NC(C)=O)CC2           inactive

stdin: For "CS(=O)(=O)CCNCc1ccc(-c2ccc3ncnc(Nc4ccc(OCc5cccc(F)c5)c(Cl)c4)c3c2)o1" , which call appears in the assay record?
stdout: active

stdin: For CC(COc1ccccc1)N(CCCl)Cc1ccccc1 (configuration not stated) , which call appears in the assay record?
stdout: inactive

stdin: For "CCCCc1oc2ccccc2c1C(=O)c1cc(I)c(OCCN(CC)CC)c(I)c1" , which call appears in the assay record?
stdout: active

stdin: For "Cc1cn([C@H]2C[C@H](N=[N+]=[N-])[C@@H](CO)O2)c(=O)[nH]c1=O" , which call appears in the assay record?
stdout: inactive

###

Procedure Summary: Quantitative High-Throughput drug screen in 47 multiple myeloma cell lines against the NCATS MIPE library collection: OPM1_PLB cell viability assay (AID 1918989); further: potency means the concentration at half of the fitted maximal effect; nearly all actives have a fitted effect of over 40% in size
Test Context: CellTiter-Glo, 48 h; series mostly up to 45.8 µM
Results filed as inconclusive are left out. The source made the active and inactive calls. Calls follow the shape of the dose curve; as a rule, active = well fitted cell-killing curve with a large enough effect; inconclusive = small, poorly fitted or top-dose-only effect, or effect the other way; inactive = no such curve, though single readings can be large or run the other way.
Mark one answer only. Choices: active, inactive

stdin: For "CCCCc1oc2ccccc2c1C(=O)c1cc(I)c(OCCN(CC)CC)c(I)c1" , which call appears in the assay record?
stdout: active

###

Procedure Summary: qHTS of pediatric cancer cell lines to identify multiple opportunities for drug repurposing: Primary screen for LAN-5 cells (AID 1347100)
Test Context: LAN-5 neuroblastoma viability, CellTiter-Glo luminescence, 48 h; series mostly up to 46 µM
Records with an inconclusive call do not appear. The source made the active and inactive calls. Calls come from the whole dose curve; as a rule, active = well fitted cell-killing curve with a large enough effect; inconclusive = small, poorly fitted or top-dose-only effect; inactive = no such curve, though single readings can be large or run the other way.
Mark one answer only. Choices: active, inactive

The examples below pair each entry with its known result.
Compound	Qualitative Label
OCCN(CCO)c1nc(N2CCCCC2)c2nc(N(CCO)CCO)nc(N3CCCCC3)c2n1	inactive
COc1ccc(C2CNC(=O)C2)cc1OC1CCCC1 (stereo not drawn)	inactive
NCCS(=O)(=O)O	inactive
O=C(c1ccc(OCCN2CCCCC2)cc1)c1c(-c2ccc(O)cc2)sc2cc(O)ccc12	active
COc1cc2nc(N(C)CCCNC(=O)C3CCCO3)nc(N)c2cc1OC (stereo not drawn)	inactive

--- query ---
stdin: For "NC12CC3CC(CC(C3)C1)C2" , which call appears in the assay record?
stdout: inactive

###

Procedure Summary: qHTS profiling of the MIPE4 collection as inhibitors of Plasmodium falciparum (DD2) proliferation (Rep 2) (AID 743346)
Test Context: P. falciparum Dd2 in erythrocytes, SYBR Green DNA, 72 h; at 28.5 µM (top of the series) unless noted
Measured Metric: parasite growth, % of control (lower = inhibition)

Some solved cases for reference:
                                 compound  result
0      NS(=O)(=O)c1cc2c(cc1Cl)NCNS2(=O)=O   39.6%
1   CC(=O)OCC(CCn1cnc2cnc(N)nc21)COC(C)=O   91.8%
2  COC(=O)Nc1nc2ccc(C(=O)c3cccs3)cc2[nH]1   91.6%

Form field parasite growth, % of control (lower = inhibition), entry NC(CO)C(=O)NNCc1ccc(O)c(O)c1O (stereo unspecified) : 89.1%

Form field parasite growth, % of control (lower = inhibition), entry "Cc1cn([C@H]2C=C[C@@H](CO)O2)c(=O)[nH]c1=O" : 140% [at 57.5 µM]

Form field parasite growth, % of control (lower = inhibition), entry "CN1CCC(=C2c3ccccc3C=Cc3ccccc32)CC1" : 35.3%

Form field parasite growth, % of control (lower = inhibition), entry "Cc1cn([C@H]2C[C@H](N=[N+]=[N-])[C@@H](CO)O2)c(=O)[nH]c1=O" : 117%

Form field parasite growth, % of control (lower = inhibition), entry "NCCS(=O)(=O)O" : 90.9%

Form field parasite growth, % of control (lower = inhibition), entry "Nc1nnc(-c2cccc(Cl)c2Cl)c(N)n1" : 104%

Form field parasite growth, % of control (lower = inhibition), entry "OCCN(CCO)c1nc(N2CCCCC2)c2nc(N(CCO)CCO)nc(N3CCCCC3)c2n1" : 36.9%

Form field parasite growth, % of control (lower = inhibition), entry CC(C)NCC(O)c1ccc(O)c(O)c1 (stereo unspecified) : 9.11%

###

System: NIH3T3
Procedure Summary: Cytotoxic Profiling of Annotated Libraries Using Quantitative High-Throughput Screening (AID 1296008); further: on the % scale 0 is the no-effect control and ±100 the full control effect; nearly all actives have a fitted effect of over 60% in size
Test Context: Five cell lines viability, CellTiter-Glo ATP luminescence, 48-72 h; stronger effect = lower value
Records with an inconclusive call do not appear.
Measured Metric: max response (%)
Express it in %; write the number only.

>>> print(df.to_string())
                                   compound  result_number
0  O=c1c(O)c(-c2ccc(O)c(O)c2)oc2cc(O)cc(O)c12          -3.23
1         CN(C)CCCN1c2ccccc2CCc2ccc(Cl)cc21          -22.1
2  COc1ccccc1N1CCN(CC(O)COc2cccc3ccccc23)CC1 (stereo unspecified)         0.0963
3  C[C@H]1c2cccc(O)c2C(O)=C2C(=O)[C@]3(O)C(O)=C(C(N)=O)C(=O)[C@@H](N(C)C)[C@@H]3[C@@H](O)[C@@H]21           1.59
4  CN1C(C(=O)Nc2ccccn2)=C(O)c2ccccc2S1(=O)=O           1.34

Now turn to the next compound.
Form field max response, entry "Cc1cc(C(C)(C)C)c(O)c(C)c1CC1=NCCN1" : 3.71

###

System: CP194
Procedure Summary: qHTS profiling for inhibitors of Plasmodium falciparum proliferation (AID 504749);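 further: 0% = DMSO vehicle and full inhibition = artemisinin control; nearly all actives have a fitted effect of over 60% in size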
Test Context: P. falciparum in erythrocytes, SYBR Green DNA, 72 h; series mostly up to 28.7 µM
Inconclusive results are not listed. Calls of active or inactive are those of the source. Calls follow the shape of the dose curve; as a rule, active = well fitted inhibition curve with a large enough effect; inconclusive = small, poorly fitted or top-dose-only effect; inactive = flat fitted curve, though single readings scatter.
Measured Metric: outcome

>>> print(df.to_string())
                                smiles_data  measured_metric    result
0  CC[N+](CC)(CC)CCOc1cccc(OCC[N+](CC)(CC)CC)c1OCC[N+](CC)(CC)CC          outcome  inactive
1  CN1C(C(=O)Nc2ccccn2)=C(O)c2ccccc2S1(=O)=O          outcome  inactive
2  CS(=O)(=O)CCNCc1ccc(-c2ccc3ncnc(Nc4ccc(OCc5cccc(F)c5)c(Cl)c4)c3c2)o1          outcome  inactive

###

Target Under Test: Single-stranded DNA cytosine deaminase (Homo sapiens) (UniProt Q9GZX7)
Sequence (Q9GZX7 whole entry, looked up): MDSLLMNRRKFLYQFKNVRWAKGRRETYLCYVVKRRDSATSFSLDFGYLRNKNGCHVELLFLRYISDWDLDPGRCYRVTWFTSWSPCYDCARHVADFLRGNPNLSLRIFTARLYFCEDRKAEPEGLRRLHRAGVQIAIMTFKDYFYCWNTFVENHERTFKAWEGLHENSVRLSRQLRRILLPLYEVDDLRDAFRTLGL
Procedure Summary: Validation qHTS assay for inhibitors of Activation Induced Cytidine Deaminase (AID): AID signal (AID 1347429); further: potency means the concentration at half of the fitted maximal effect
Test Context: Recombinant AID, FRET ssDNA deamination with UDG, fluorescence; series mostly up to 115 µM
Calls of active or inactive are those of the source. Calls follow the shape of the dose curve; as a rule, active = well fitted inhibition curve with a large enough effect; inconclusive = small, poorly fitted or top-dose-only effect; inactive = no such curve, though single readings can be large or run the other way.
Measured Metric: Potency

                                smiles_data          result
0        Cc1cc(C(C)(C)C)c(O)c(C)c1CC1=NCCN1        inactive
1  O=C1c2c(O)ccc(O)c2C(=O)c2c(NCCNCCO)ccc(NCCNCCO)c21  10 µM (active)
2  O=C(c1ccc(F)cc1)C1CCN(CCn2c(=O)[nH]c3ccccc3c2=O)CC1        inactive
3                             NCCS(=O)(=O)O        inactive

Now turn to the next molecule.
Form field Potency, entry "CN1CCC(=C2c3ccccc3C=Cc3ccccc32)CC1" : inactive

###

Procedure Summary: qHTS to identify inhibitors of the type 1 interferon - major histocompatibility complex class I in skeletal muscle: primary screen against the NCATS Pharmaceutical Collection (AID 1347407);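 further: luminescence of HiBiT knocked into endogenous HLA-B as interferon-induced MHC class I level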
Test Context: human skeletal muscle cells, IFN-b-induced MHC-I HiBiT luminescence, 24 h; series mostly up to 45.9 µM
Inconclusive results are not listed. Active and inactive are the calls of the source. The call rests on the fitted dose curve; in most records, active means well fitted inhibition curve with a large enough effect; inconclusive means small, poorly fitted or top-dose-only effect; inactive means flat fitted curve, though single readings scatter.
Mark one answer only. Choices: active, inactive

The examples below pair each entry with its known result.
>>> print(df.to_string())
                                   compound  qualitative_label
0  NC(CO)C(=O)NNCc1ccc(O)c(O)c1O (centres undefined)           inactive
1           Cc1cc(C(C)(C)C)cc(C)c1CC1=NCCN1           inactive
2  CC[C@@]1(O)C(=O)OCc2c1cc1n(c2=O)Cc2cc3c(CN(C)C)c(O)ccc3nc2-1             active

stdin: For Cc1ccccc1N1C(=O)c2cc(S(N)(=O)=O)c(Cl)cc2NC1C (centres undefined) , which call appears in the assay record?
stdout: inactive

stdin: For CC(C)(Oc1ccc(C2CC2(Cl)Cl)cc1)C(=O)O (centres undefined) , which call appears in the assay record?
stdout: inactive

stdin: For "C[C@](N)(Cc1ccc(O)c(O)c1)C(=O)O" , which call appears in the assay record?
stdout: inactive

stdin: For CC(C)NCC(O)c1ccc(O)c(O)c1 (centres undefined) , which call appears in the assay record?
stdout: inactive

stdin: For "O=C1c2c(O)ccc(O)c2C(=O)c2c(NCCNCCO)ccc(NCCNCCO)c21" , which call appears in the assay record?
stdout: active

stdin: For "CC(C)(C)C(=O)Oc1ccc(S(=O)(=O)Nc2ccccc2C(=O)NCC(=O)O)cc1" , which call appears in the assay record?
stdout: inactive

stdin: For "CN(Cc1cnc2nc(N)nc(N)c2n1)c1ccc(C(=O)N[C@@H](CCC(=O)O)C(=O)O)cc1" , which call appears in the assay record?
stdout: inactive

stdin: For "CC[N+](CC)(CC)CCOc1cccc(OCC[N+](CC)(CC)CC)c1OCC[N+](CC)(CC)CC" , which call appears in the assay record?
stdout: inactive

stdin: For "CCOC(=O)Nc1ccc(NCc2ccc(F)cc2)nc1N" , which call appears in the assay record?
stdout: inactive

stdin: For "CN(C)CCC=C1c2ccccc2C=Cc2ccccc21" , which call appears in the assay record?
stdout: inactive

stdin: For "CN1CCN(C2=Nc3cc(Cl)ccc3Nc3ccccc32)CC1" , which call appears in the assay record?
stdout: inactive
